- Target Entity: D(2) dopamine receptor (Rattus norvegicus, UniProt P61169)
- Sequence (P61169 whole entry): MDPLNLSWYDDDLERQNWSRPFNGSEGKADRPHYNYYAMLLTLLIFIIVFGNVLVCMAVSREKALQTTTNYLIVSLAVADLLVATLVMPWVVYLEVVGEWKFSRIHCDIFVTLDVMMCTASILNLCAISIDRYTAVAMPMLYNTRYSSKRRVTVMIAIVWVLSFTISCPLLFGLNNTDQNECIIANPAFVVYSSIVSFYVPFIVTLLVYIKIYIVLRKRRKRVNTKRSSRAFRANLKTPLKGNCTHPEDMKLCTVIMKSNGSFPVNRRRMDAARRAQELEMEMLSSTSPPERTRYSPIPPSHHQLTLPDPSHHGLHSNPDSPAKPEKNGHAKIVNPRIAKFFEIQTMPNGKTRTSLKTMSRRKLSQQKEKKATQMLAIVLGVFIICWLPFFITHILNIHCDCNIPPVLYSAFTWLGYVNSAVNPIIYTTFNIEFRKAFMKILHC
- Assay Summary: Ability to displace [3H]raclopride from dopamine receptor D2 in rat striatal homogenates.
Property: Ki; scope: individual molecules
Please give a number only; it is taken to be in nM.

The following molecules have reported results that may help.
CCCN(CCC)C1Cc2cccc3[nH]c(=O)c(=O)n(c23)C1.Cl (stereo not drawn) ... 150
CCCN(CCC)C1Cc2cccc3c2N(C1)C(=O)C3 (stereo not drawn) ... 1080
CCCN(CCC)C1Cc2cccc3nc(O)n(c23)C1.Cl (stereo not drawn) ... 207

Q: Report Ki for CCCN(CCC)C1Cc2cccc3c2N(C1)C(=O)CC3 (stereo not drawn) please.
Ans: 83

Q: Report Ki for C=CCNC1Cc2cccc3nc(O)n(c23)C1 (stereo not drawn) please.
Ans: 363
